Tested on: HSkMC
Assay: cytotoxicity call (relative viability < 0.9)
Details: 10 µM
Among all 39,000 compounds or so, about 1,500 (3.8%) were called active. This excerpt belongs to a sample that is enriched for actives.
Answer with one of the outcomes YES = active, NO = inactive

These recorded examples may help you get a feel for the data.
C[C@@H]1CN([C@H](C)CO)C(=O)Cc2cc(NC(=O)Nc3ccccc3)ccc2O[C@@H]1CN(C)Cc1ccc(-c2ccccc2)cc1    YES
C[C@@H]1CCCCO[C@@H](CN(C)S(=O)(=O)c2ccc(F)cc2)[C@@H](C)CN([C@@H](C)CO)C(=O)c2cc(NC(=O)Nc3ccc(F)cc3)ccc2O1    NO
C[C@@H]1CN([C@@H](C)CO)S(=O)(=O)c2ccc(C#C[C@@H](C)O)cc2O[C@H]1CN(C)C(=O)C1CCCCC1    NO

Query: # fetch the recorded call for COc1ccc(CN(C)C[C@H]2Oc3ccc(NC(=O)C4CC4)cc3CC(=O)N([C@@H](C)CO)C[C@H]2C)cc1 here
Response: NO

Query: What is the recorded call for this molecule in the test? C[C@H](CO)N1C[C@H](C)[C@H](CN(C)Cc2ccc(C(=O)Nc3ccccc3N)cc2)Oc2ccc(NC(=O)Nc3ccc(F)cc3)cc2CC1=O
Response: NO

====

System: HSkMC
Test: cytotoxicity call (relative viability < 0.9)
Conditions: 10 µM
The whole screen tested about 39,000 compounds, of which about 1,500 (3.8%) were called active. Many of the other results were omitted from the sample, so actives are more common in it than they were.
Pick one and only one: active, inactive

Some entries whose results are on file:
O=C(CN1CCOCC1)NCC[C@@H]1CC[C@@H](NC(=O)c2ccccc2F)[C@@H](CO)O1    active
C[C@H](CO)N1C[C@H](C)[C@H](CN(C)C(=O)Nc2ccc3c(c2)OCO3)OCCCC[C@H](C)Oc2ccc(NC(=O)CCC(F)(F)F)cc2C1=O    inactive
Cc1noc(C)c1NC(=O)N(C)C[C@@H]1OCCCC[C@@H](C)Oc2ccc(NC(=O)Cc3ccccc3)cc2C(=O)N([C@H](C)CO)C[C@H]1C    inactive
C[C@@H]1CN([C@H](C)CO)C(=O)c2cc(NC(=O)CCCCCC(=O)Nc3ccccc3N)ccc2O[C@H]1CN(C)Cc1ccc(-c2ccccc2)cc1    active

Query: Identify the outcome logged in this assay for the compound shown: C[C@@H]1CCCCO[C@H](CN(C)C(=O)Nc2ccc3c(c2)OCO3)[C@H](C)CN([C@H](C)CO)C(=O)c2cc(NC(=O)c3ccncc3)ccc2O1
Response: inactive

====

System: HSkMC
Assay: cytotoxicity call (relative viability < 0.9)
Details: 10 µM
Hit rate of the full screen: of about 39,000 compounds, about 1,500 (3.8%) were called active. The entries come from a sample that favours actives as a whole.
The reply should be one of these categories: Yes = active, No = inactive

Past entries and their recorded results:
C[C@H](CO)N1C[C@H](C)[C@H](CN(C)Cc2ccc(Oc3ccccc3)cc2)Oc2c(NC(=O)Nc3cccc4ccccc34)cccc2C1=O    No
C[C@@H]1CN([C@@H](C)CO)C(=O)c2cccc(NC(=O)C3CCCCC3)c2O[C@H]1CN(C)Cc1ccc(Oc2ccccc2)cc1    No

Query: Assay result, entry C[C@@H]1CN([C@H](C)CO)C(=O)c2cccc(NC(=O)Nc3ccccc3)c2O[C@H]1CN(C)Cc1ccc(Oc2ccccc2)cc1 — outcome?
Response: No

Query: State the result this test recorded for C[C@H]1CN([C@@H](C)CO)C(=O)c2cccc(NC(=O)Nc3cccc4ccccc34)c2O[C@H]1CN(C)Cc1ccc(Oc2ccccc2)cc1 .
Response: No

====

Test system: HSkMC
Test: cytotoxicity call (relative viability < 0.9)
Conditions: 10 µM
The campaign covered roughly 39,000 compounds. About 1,500 (3.8%) were called active. This excerpt belongs to a sample that is enriched for actives.
In this exercise, the only acceptable responses are active, inactive

Example entries and their recorded answers appear below.
C[C@@H]1CN([C@H](C)CO)C(=O)c2cc(NC(=O)Nc3ccc(F)cc3)ccc2O[C@H]1CN(C)C(=O)Nc1cccc2ccccc12    inactive
Cc1ccc(S(=O)(=O)Nc2cccc3c2O[C@H](CN(C)C(=O)Nc2cccc4ccccc24)[C@@H](C)CN([C@@H](C)CO)C3=O)cc1    active
CN(C)c1ccc2c(=O)[nH][nH]c(=O)c2c1    inactive
C[C@@H]1CN([C@H](C)CO)C(=O)c2cccc(NS(=O)(=O)c3cccs3)c2O[C@H]1CN(C)C(=O)Nc1cccc2ccccc12    active
C[C@H]1CN([C@@H](C)CO)C(=O)c2cc(NC(=O)Nc3ccc(F)cc3)ccc2O[C@H]1CN(C)Cc1ccc(C(F)(F)F)cc1    inactive

Query: Could you please tell me the result logged for C[C@H]1CN([C@@H](C)CO)C(=O)c2cccc(NS(=O)(=O)c3ccc(F)cc3)c2O[C@H]1CN(C)C(=O)Nc1cccc2ccccc12 in this assay?
Response: inactive

Query: Fill in: this test's call for C[C@@H]1CN([C@H](C)CO)C(=O)c2cc(NC(=O)Nc3ccc(F)cc3)ccc2O[C@@H]1CN(C)C(=O)Nc1cccc2ccccc12 is ___
Response: active

Query: // param item: C[C@@H]1CN([C@@H](C)CO)C(=O)c2cc(NC(=O)Nc3ccc(F)cc3)ccc2O[C@H]1CN(C)Cc1ccc(C(F)(F)F)cc1 ; yields the recorded call
Response: active

Query: What classification did C[C@@H]1CN([C@H](C)CO)C(=O)c2cc(NC(=O)Nc3ccc(F)cc3)ccc2O[C@@H]1CN(C)Cc1ccc(C(F)(F)F)cc1 end up with in this test?
Response: inactive

Query: For C[C@H](CO)N1C[C@H](C)[C@@H](CN(C)C(=O)Nc2cccc3ccccc23)Oc2c(NS(=O)(=O)c3cccs3)cccc2C1=O , which call appears in the assay record?
Response: inactive

====

Tested on: HSkMC (human skeletal muscle cells)
Assay: cytotoxicity call (relative viability < 0.9)
Conditions: 10 µM
The whole screen tested about 39,000 compounds, of which about 1,500 (3.8%) were called active. The sample as a whole holds a higher share of actives than the screen did.
measurementKind: cytotoxicity call

Cn1nnnc1SCC(=O)Nc1ncccn1    inactive
COc1cc(Nc2c(C#N)cnc3cc(OCCCN4CCN(C)CC4)c(OC)cc23)c(Cl)cc1Cl    inactive
C[C@@H]1CCCCO[C@@H](CN(C)Cc2ccc(C(F)(F)F)cc2)[C@@H](C)CN([C@H](C)CO)C(=O)c2cc(NS(C)(=O)=O)ccc2O1    inactive
C[C@@H]1CCCCO[C@H](CN(C)C(=O)c2ccccc2)[C@H](C)CN([C@@H](C)CO)C(=O)c2cc(NC(=O)Cc3ccccc3)ccc2O1    inactive
C[C@@H]1CN([C@H](C)CO)C(=O)c2c(c3ccccc3n2C)-c2ccccc2CO[C@H]1CN(C)Cc1ccc(C(F)(F)F)cc1    active
Cn1nc(CN2CCCC2=O)c2c1CN(C(=O)CO)C2    inactive
C[C@@H]1CN([C@H](C)CO)C(=O)c2c(c3ccccc3n2C)-c2ccccc2CO[C@H]1CN(C)S(=O)(=O)c1ccc(C(F)(F)F)cc1    active
Cc1noc(C)c1S(=O)(=O)N(C)C[C@H]1Oc2ccc(NS(=O)(=O)c3ccccc3)cc2C(=O)N([C@@H](C)CO)C[C@H]1C    inactive
Cc1noc(C)c1S(=O)(=O)N(C)C[C@H]1Oc2ccc(NS(=O)(=O)c3cccs3)cc2CC(=O)N([C@H](C)CO)C[C@H]1C    inactive
C[C@@H]1CN([C@@H](C)CO)C(=O)c2c(c3ccccc3n2C)-c2ccccc2CO[C@H]1CN(C)Cc1ccc(C(F)(F)F)cc1    active

Provide each entry's cytotoxicity call from the list below.
1. Cc1ccc(S(=O)(=O)N2C[C@@H](O)COC[C@H]3O[C@H](CC(=O)NCc4cccc(C(F)(F)F)c4)CC[C@@H]32)cc1
2. C[C@@H]1CN([C@H](C)CO)C(=O)c2cc(NC(=O)Cc3cn(C)c4ccccc34)ccc2O[C@H]1CN(C)C(=O)Nc1cccc2ccccc12
3. C[C@H](CO)N1C[C@H](C)[C@@H](CN(C)Cc2ccc(Oc3ccccc3)cc2)Oc2c(NC(=O)c3ccc(-c4nccs4)cc3)cccc2C1=O
4. CCc1nc2ccc(C(=O)Nc3cccc(OCC(=O)N(C)C)c3)cn2c1N(C)Cc1cc2ccccc2s1
5. C[C@H]1CN([C@@H](C)CO)C(=O)Cc2cc(NC(=O)Cc3cn(C)c4ccccc34)ccc2O[C@H]1CN(C)C(=O)Nc1cccc2ccccc12
6. CC(=O)OC1CC(O)C(C)(C)C2CC(OC(C)=O)C3(C)C(CCC4(C)C(c5ccoc5)OC(=O)C5OC543)C12C (stereo not given)
7. CCOc1cc2ncc(C#N)c(Nc3ccc(OCc4ccccn4)c(Cl)c3)c2cc1NC(=O)/C=C/CN(C)C

Response:
1. inactive
2. active
3. inactive
4. inactive
5. inactive
6. inactive
7. active
